- Tested on: A549
- Test summary: Cytotoxic MTS assay, A549
- Type: cell-based
- Assay setup: Homo sapiens, 72 h, lung adenocarcinoma
IC50 values for the compounds below.

Consider the worked cases shown below.
- Compound: "C=C(Cn1cc(-c2ccccn2)nn1)[C@@H]1CC[C@]2(C(=O)O)CC[C@]3(C)C(CCC4[C@@]5(C)CC[C@H](OC(C)=O)C(C)(C)C5CC[C@]43C)C12 (stereo partly drawn) [Compound 9c]"
  Tested target: "A549"
  Recorded endpoint: "IC50"
  Observed: "13.2 µM"
- Compound: "C=C(Cn1cc(-c2ccccn2)nn1)[C@@H]1CC[C@]2(C(=O)O)CC[C@]3(C)C(CCC4[C@@]5(C)CC[C@H](O)C(C)(C)C5CC[C@]43C)C12 (stereo partly drawn) [Compound 11c]"
  Tested target: "A549"
  Recorded endpoint: "IC50"
  Observed: "> 50 µM"

Reported IC50 for C=C(Cn1cc(-c2ccc(C(C)(C)C)cc2)nn1)[C@@H]1CC[C@]2(C(=O)O)CC[C@]3(C)C(CCC4[C@@]5(C)CC[C@H](O)C(C)(C)C5CC[C@]43C)C12 (stereo partly drawn) [Compound 11f] : what is it?
> 50 µM

---

IC50 values for the compounds below.
- Tested on: U2OS
- Test summary: Cytotoxic MTS assay, U2OS
- Assay type: cell-based
- Assay setup: Homo sapiens, 72 h, osteosarcoma
- Method: Cytotoxic activity of all synthesized compounds was investigated in vitro against eight human cancer cell lines and two non-tumor fibroblasts using the standard MTS test (Table 1). […] MTS assay was performed at Institute of Molecular and Translational Medicine by robotic platform (HighResBiosolutions). […] After this incubation period, the optical density (OD) was measured at 490 nm with an Envision reader (Perkin Elmer). […]
All answers are understood in µM, so give the number only.

- Compound: "C=C(Cn1cc(-c2cccnc2)nn1)[C@@H]1CC[C@]2(C(=O)O)CC[C@]3(C)C(CCC4[C@@]5(C)CC[C@H](OC(C)=O)C(C)(C)C5CC[C@]43C)C12 (some centres unmarked)"
  Scale unit: "µM"
  IC50: 17.3

Reported IC50 for C=C(Cn1cc(CN)nn1)[C@@H]1CC[C@]2(C(=O)O)CC[C@]3(C)C(CCC4[C@@]5(C)CC[C@H](OC(C)=O)C(C)(C)C5CC[C@]43C)C12 (some centres unmarked) : what is it?
30.6

---

IC50 values for the molecules below.
- Tested on: U2OS
- Test summary: Cytotoxic MTS assay, U2OS
- Type: cell-based
- Assay setup: Homo sapiens, 72 h, osteosarcoma

- Molecule: "C=C(Cn1cc(-c2ccccc2)nn1)[C@@H]1CC[C@]2(C(=O)O)CC[C@]3(C)C(CCC4[C@@]5(C)CC[C@H](O)C(C)(C)C5CC[C@]43C)C12 (some centres unmarked) [Compound 11a]"
  Recorded endpoint: "IC50"
  Observed: "> 50 µM"

Now look at this entry.
Reported IC50 for C=C(Cn1cc(C2CCCC2)nn1)[C@@H]1CC[C@]2(C(=O)O)CC[C@]3(C)C(CCC4[C@@]5(C)CC[C@H](OC(C)=O)C(C)(C)C5CC[C@]43C)C12 (some centres unmarked) [Compound 9g] : what is it?
44.1 µM

---

- Test system: A549
- Test summary: Cytotoxic MTS assay, A549
- Format: cell-based
- Assay setup: Homo sapiens, 72 h, lung adenocarcinoma
Recorded endpoint: IC50 (µM)
All answers are understood in µM, so give the number only.

Consider the worked cases shown below.
- Compound: "C=C(CBr)[C@@H]1CC[C@]2(C(=O)O)CC[C@]3(C)C(CCC4[C@@]5(C)CC[C@H](OC(C)=O)C(C)(C)C5CC[C@]43C)C12 (stereo partly drawn)"
  Observed: 13.2
- Compound: "C=C(Cn1cc(-c2ccccc2C=O)nn1)[C@@H]1CC[C@]2(C(=O)O)CC[C@]3(C)C(CCC4[C@@]5(C)CC[C@H](OC(C)=O)C(C)(C)C5CC[C@]43C)C12 (stereo partly drawn)"
  Observed: 14.8
- Compound: "C=C(C)[C@@H]1CC[C@]2(C(=O)O)CC[C@]3(C)[C@H](CC[C@@H]4[C@@]5(C)CC[C@H](O)C(C)(C)[C@@H]5CC[C@]43C)[C@@H]12"
  Observed: 43.4
- Compound: "C=C(Cn1cc(-c2ccccc2)nn1)[C@@H]1CC[C@]2(C(=O)O)CC[C@]3(C)C(CCC4[C@@]5(C)CC[C@H](OC(C)=O)C(C)(C)C5CC[C@]43C)C12 (stereo partly drawn)"
  Observed: 23.4
- Compound: "C=C(Cn1cc(CN)nn1)[C@@H]1CC[C@]2(C(=O)O)CC[C@]3(C)C(CCC4[C@@]5(C)CC[C@H](OC(C)=O)C(C)(C)C5CC[C@]43C)C12 (stereo partly drawn)"
  Observed: 30.5

Reported IC50 for C=C(Cn1cc(-c2ccc(C(C)(C)C)cc2)nn1)[C@@H]1CC[C@]2(C(=O)O)CC[C@]3(C)C(CCC4[C@@]5(C)CC[C@H](OC(C)=O)C(C)(C)C5CC[C@]43C)C12 (stereo partly drawn) : what is it?
45

Reported IC50 for C=C(Cn1cc(-c2cccnc2)nn1)[C@@H]1CC[C@]2(C(=O)O)CC[C@]3(C)C(CCC4[C@@]5(C)CC[C@H](OC(C)=O)C(C)(C)C5CC[C@]43C)C12 (stereo partly drawn) : what is it?
11.3

Reported IC50 for C=C(CN=[N+]=[N-])[C@@H]1CC[C@]2(C(=O)O)CC[C@]3(C)C(CCC4[C@@]5(C)CC[C@H](OC(C)=O)C(C)(C)C5CC[C@]43C)C12 (stereo partly drawn) : what is it?
17.6

---

pIC50 values for the compounds below.
- System: U2OS
- Test summary: Cytotoxic MTS assay, U2OS
- Type: cell-based
- Assay setup: Homo sapiens, 72 h, osteosarcoma
Value format note: pIC50 is -log10 of concentration (mol/L); just state the number.

Consider the worked cases shown below.
- Compound: "C=C(CN=[N+]=[N-])[C@@H]1CC[C@]2(C(=O)O)CC[C@]3(C)C(CCC4[C@@]5(C)CC[C@H](O)C(C)(C)C5CC[C@]43C)C12 (some centres unmarked)"
  pIC50: 4.60
- Compound: "C=C(Cn1cc(-c2ccc(C(C)(C)C)cc2)nn1)[C@@H]1CC[C@]2(C(=O)O)CC[C@]3(C)C(CCC4[C@@]5(C)CC[C@H](OC(C)=O)C(C)(C)C5CC[C@]43C)C12 (some centres unmarked)"
  pIC50: 4.34
- Compound: "C=C(CBr)[C@@H]1CC[C@]2(C(=O)O)CC[C@]3(C)C(CCC4[C@@]5(C)CC[C@H](O[Si](c6ccccc6)(c6ccccc6)c6ccccc6)C(C)(C)C5CC[C@]43C)C12 (some centres unmarked)"
  pIC50: 4.55

Reported pIC50 for C=C(Cn1cc(-c2ccc(N(C)C)cc2)nn1)[C@@H]1CC[C@]2(C(=O)O)CC[C@]3(C)C(CCC4[C@@]5(C)CC[C@H](OC(C)=O)C(C)(C)C5CC[C@]43C)C12 (some centres unmarked) : what is it?
4.51

---

- System: U2OS
- Test summary: Cytotoxic MTS assay, U2OS
- Format: cell-based
- Assay setup: Homo sapiens, 72 h, osteosarcoma
Recorded endpoint: pIC50
Value format note: pIC50 is -log10 of concentration (mol/L); just state the number.

- Compound: "C=C(Cn1cc(-c2ccccc2C=O)nn1)[C@@H]1CC[C@]2(C(=O)O)CC[C@]3(C)C(CCC4[C@@]5(C)CC[C@H](OC(C)=O)C(C)(C)C5CC[C@]43C)C12 (stereo partly drawn)"
  pIC50: 4.89

// map C=C(CN=[N+]=[N-])[C@@H]1CC[C@]2(C(=O)O)CC[C@]3(C)C(CCC4[C@@]5(C)CC[C@H](OC(C)=O)C(C)(C)C5CC[C@]43C)C12 (stereo partly drawn) to recorded pIC50 (system: U2OS)
4.68

---

Sub G1 (%) values for the compounds below.
- Tested on: CCRF-CEM cells
- Test summary: Cell cycle and apoptosis analysis (propidium iodide flow cytometry)
- Format: cell-based, human
- Assay setup: 5 × IC50
All answers are understood in %, so give the number only.

// map C=C(Cn1cc(-c2ccccc2C=O)nn1)[C@@H]1CC[C@]2(C(=O)O)CC[C@]3(C)C(CCC4[C@@]5(C)CC[C@H](OC(C)=O)C(C)(C)C5CC[C@]43C)C12 (some centres unmarked) [Compound 9b] to recorded Sub G1 (%) (system: CCRF-CEM cells)
51.9

// map C=C(Cn1cc(-c2ccccc2C=O)nn1)[C@@H]1CC[C@]2(C(=O)O)CC[C@]3(C)C(CCC4[C@@]5(C)CC[C@H](O)C(C)(C)C5CC[C@]43C)C12 (some centres unmarked) [Compound 11b] to recorded Sub G1 (%) (system: CCRF-CEM cells)
65.6

// map C=C(CN=[N+]=[N-])[C@@H]1CC[C@]2(C(=O)O)CC[C@]3(C)C(CCC4[C@@]5(C)CC[C@H](OC(C)=O)C(C)(C)C5CC[C@]43C)C12 (stereo partly drawn) [Compound 6, 3β-O-Acetyl-30-azidobetulinic acid] to recorded Sub G1 (%) (system: CCRF-CEM cells)
70.0

// map C=C(Cn1cc(-c2ccccn2)nn1)[C@@H]1CC[C@]2(C(=O)O)CC[C@]3(C)C(CCC4[C@@]5(C)CC[C@H](OC(C)=O)C(C)(C)C5CC[C@]43C)C12 (some centres unmarked) [Compound 9c] to recorded Sub G1 (%) (system: CCRF-CEM cells)
65.6

// map C=C(CBr)[C@@H]1CC[C@]2(C(=O)O)CC[C@]3(C)C(CCC4[C@@]5(C)CC[C@H](OC(C)=O)C(C)(C)C5CC[C@]43C)C12 (stereo partly drawn) [Compound 4, 3β-O-Acetyl-30-bromobetulinic acid] to recorded Sub G1 (%) (system: CCRF-CEM cells)
39.7
